Assay: in vitro
Details: human
Reported values of viability at 48 h, 1 µM for individual entries
measured-quantity: viability at 48 h, 1 µM (%)

COc1cc(/C=C/C(=O)CC(=O)/C=C/c2ccc(O)c(OC)c2)ccc1O [Curcumin, curcumin, reference compound]
95.3
COc1ccc(C2CC(=O)c3c(O)cc(OCC(=O)NCCc4ccccc4)cc3O2)cc1O (centres unmarked)
98.9
COc1ccc(C2CC(=O)c3c(O)cc(OCC(=O)NCc4ccccc4OC)cc3O2)cc1O (centres unmarked)
97.8
COc1ccc(CNC(=O)COc2cc(O)c3c(c2)OC(c2ccc(OC)c(O)c2)CC3=O)cc1 (centres unmarked)
105
COc1ccc([C@@H]2CC(=O)c3c(O)cc(O)cc3O2)cc1O
99
COc1ccc(C2CC(=O)c3c(O)cc(OCC(=O)NCCc4ccc(F)cc4)cc3O2)cc1O (centres unmarked)
101
COc1ccc(C2CC(=O)c3c(O)cc(OCC(=O)NCCc4cccc(Cl)c4)cc3O2)cc1O (centres unmarked)
98.9
COc1ccc(C2CC(=O)c3c(O)cc(OCC(=O)NCCc4ccc(Br)cc4)cc3O2)cc1O (centres unmarked)
99.8
